Test: Plasma levels / pharmacokinetics in male Sprague-Dawley rat
Format: in vivo
Conditions: male, Sprague-Dawley, plasma; rat, oral 12 mg/kg, 45 min
attribute_measured: concentration at 45 min

Query :: Please report the recorded concentration at 45 min for CC(C)c1ccc(NC(=O)Cn2cnc3c2c(=O)n(C)c(=O)n3C)cc1 .
Result :: ~355 ng/mL

====

Measured pIC50 of individual entries
Molecular target: hTRPA1 (Homo sapiens, UniProt O75762, K186N)
Construct: expressed in transfected cells; host or cells: HEK293/TREx (Invitrogen), induced with tetracycline
Sequence (O75762 whole entry K186N): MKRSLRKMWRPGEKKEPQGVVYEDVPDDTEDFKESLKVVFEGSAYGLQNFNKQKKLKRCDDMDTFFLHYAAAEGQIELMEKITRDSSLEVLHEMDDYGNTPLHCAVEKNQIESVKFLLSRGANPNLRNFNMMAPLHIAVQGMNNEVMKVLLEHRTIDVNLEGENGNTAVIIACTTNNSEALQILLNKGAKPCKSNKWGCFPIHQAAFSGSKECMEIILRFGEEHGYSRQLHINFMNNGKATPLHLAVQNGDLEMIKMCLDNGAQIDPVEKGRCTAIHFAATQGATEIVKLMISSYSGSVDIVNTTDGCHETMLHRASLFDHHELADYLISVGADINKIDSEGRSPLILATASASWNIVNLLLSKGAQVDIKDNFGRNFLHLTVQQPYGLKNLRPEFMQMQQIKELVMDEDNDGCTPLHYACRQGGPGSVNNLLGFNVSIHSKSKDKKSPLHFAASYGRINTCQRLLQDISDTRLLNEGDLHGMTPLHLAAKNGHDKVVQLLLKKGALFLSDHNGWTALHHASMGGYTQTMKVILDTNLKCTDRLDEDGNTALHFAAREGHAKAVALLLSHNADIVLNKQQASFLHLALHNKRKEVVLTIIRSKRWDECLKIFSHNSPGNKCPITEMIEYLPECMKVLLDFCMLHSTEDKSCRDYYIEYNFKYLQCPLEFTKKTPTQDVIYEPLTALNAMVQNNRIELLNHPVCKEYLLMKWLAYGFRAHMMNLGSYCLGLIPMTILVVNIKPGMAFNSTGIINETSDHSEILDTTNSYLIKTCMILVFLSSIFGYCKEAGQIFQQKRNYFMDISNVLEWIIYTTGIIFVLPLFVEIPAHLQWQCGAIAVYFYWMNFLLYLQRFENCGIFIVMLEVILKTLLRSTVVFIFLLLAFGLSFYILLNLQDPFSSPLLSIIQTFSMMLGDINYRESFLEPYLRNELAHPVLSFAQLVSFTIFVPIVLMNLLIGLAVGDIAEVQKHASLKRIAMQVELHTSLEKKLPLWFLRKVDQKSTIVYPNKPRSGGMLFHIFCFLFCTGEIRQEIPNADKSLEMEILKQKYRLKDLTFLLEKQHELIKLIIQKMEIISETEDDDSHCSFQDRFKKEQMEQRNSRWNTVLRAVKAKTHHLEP
Test: High throughput Ca2+ fluorescence (Fluo4) assay, AITC stimulation
Format: cell-based
Conditions: Table 1; read-out: hTRPA1 Fluo4 IC50
pIC50: −log10 of the molar value.

Query :: Please report the recorded pIC50 for COC(=O)C1=C(C)NC(=O)NC1c1ccc(O)c(OC)c1 (stereo not shown) .
Result :: < 5.00

Query :: Please report the recorded pIC50 for COC(=O)C1=C(C)NC(=S)NC1c1cccc(Cl)c1Cl (stereo not shown) .
Result :: ≥ 5.30

Query :: Please report the recorded pIC50 for CCOC(=O)C1=C(C)NC(=O)NC1c1ccc(F)cc1F (stereo not shown) .
Result :: < 5.00

====

Molecular target: hTRPA1 (Homo sapiens, UniProt O75762, K186N)
Construct: expressed in transfected cells; host or cells: HEK293/TREx (Invitrogen), induced with tetracycline
Assay: High throughput Ca2+ fluorescence (Fluo4) assay, AITC stimulation
Format: cell-based
Conditions: Table 2; read-out: hTRPA1 Fluor IC50
attribute_measured: IC50

Guide cases for IC50, answers given:
{"compound": "Cc1cccc(NC(=O)C(C)n2cnc3c2c(=O)n(C)c(=O)n3C)c1 (stereo not drawn)", "IC50": "≥ 30 µM"}
{"compound": "Cn1c(=O)c2c(ncn2CC(=O)NCc2ccco2)n(C)c1=O", "IC50": "> 10 µM"}
{"compound": "Cn1c(=O)c2c(ncn2CC(=O)Nc2ccccc2-c2nc3ccccc3[nH]2)n(C)c1=O", "IC50": "> 10 µM"}
{"compound": "Cc1ccc2nc(NC(=O)Cn3cnc4c3c(=O)n(C)c(=O)n4C)sc2c1", "IC50": "≤ 5 µM"}
{"compound": "COc1ccc(Nc2ccc(NC(=O)Cn3cnc4c3c(=O)n(C)c(=O)n4C)cc2)cc1", "IC50": "≥ 20 µM"}

Query :: Please report the recorded IC50 for Cc1cc(Br)ccc1NC(=O)Cn1cnc2c1c(=O)n(C)c(=O)n2C .
Result :: ≤ 10 µM

Query :: Please report the recorded IC50 for Cn1c(=O)c2c(ncn2CC(=O)NCCc2ccccn2)n(C)c1=O .
Result :: > 10 µM

Query :: Please report the recorded IC50 for Cn1c(=O)c2c(ncn2CC(=O)Nc2cccc([N+](=O)[O-])c2)n(C)c1=O .
Result :: ≤ 10 µM

Query :: Please report the recorded IC50 for COc1ccc(CNC(=O)Cn2cnc3c2c(=O)n(C)c(=O)n3C)cc1OC .
Result :: > 10 µM

====

Target: hTRPA1 (Homo sapiens, UniProt O75762, K186N)
Construct: expressed in transfected cells; host or cells: HEK293/TREx (Invitrogen), induced with tetracycline
Test: High throughput Ca2+ fluorescence (Fluo4) assay, AITC stimulation
Type: cell-based
Settings: Table 1; read-out: hTRPA1 Fluo4 IC50
Measured IC50 of individual entries

Guide cases for IC50, answers given:
{"compound": "CCN(CC)C(=O)C1=C(C)NC(=S)NC1c1ccccc1F (stereo not shown)", "IC50": "> 10 µM"}
{"compound": "CCOC(=O)C1=C(c2ccccc2)NC(=O)NC1c1ccccc1F (stereo not shown)", "IC50": "> 10 µM"}
{"compound": "CC1=C(C(=O)OC2CCC(C)CC2)C(c2ccc(N(C)C)cc2)NC(=O)N1 (stereo not shown)", "IC50": "> 10 µM"}
{"compound": "CC1=C(C(=O)OC(C)C)C(c2ccccc2Cl)NC(=S)N1 (stereo not shown)", "IC50": "≤ 10 µM"}
{"compound": "COC(=O)C1=C(C)N(C)C(=S)NC1c1ccc(OC)cc1 (stereo not shown)", "IC50": "≥ 30 µM"}

Query :: Please report the recorded IC50 for CCOC(=O)C1=C(CN2CCc3ccccc32)NC(=O)NC1c1cccc([N+](=O)[O-])c1 (stereo not shown) .
Result :: > 10 µM

Query :: Please report the recorded IC50 for CCOC(=O)C1=C(c2ccccc2)NC(=S)NC1c1ccccc1Br (stereo not shown) .
Result :: > 10 µM

Query :: Please report the recorded IC50 for CCOC(=O)C1=C(c2ccccc2)NC(=S)NC1c1ccccc1 (stereo not shown) .
Result :: ≤ 10 µM

Query :: Please report the recorded IC50 for CCN1C(=O)NC(c2ccc(Br)cc2)C(C(=O)OC(C)C)=C1C (stereo not shown) .
Result :: ≤ 5 µM

Query :: Please report the recorded IC50 for CC1=C(C(=O)OC(C)C)C(c2ccc(F)c(Br)c2)NC(=O)N1 (stereo not shown) .
Result :: > 10 µM

Origin of the recorded values: patent US7671061B2
